Assay: Plasma and tissue distribution in SD rats
Format: in vivo
Conditions: Sprague-Dawley; male SD rat, PO 10 mg/kg, Fat
Experimental: The following Example describes the methods and data used to evaluate the tissue distribution of TYK2 inhibitors following the administration of either compound 1 or compound 2. Thirty (30, 15/sex) SD rats supplied by Beijing Vital River Laboratory Animal Technology Co., Ltd. were used in this study. […] The room (s) was controlled and monitored for relative humidity (targeted mean range 40% to 70%) and temperature (targeted mean range 20° C. to 26° C.) with 15 or above air changes/hour. […]
quantity-measured: Cmax (ng/g)
One number for each entry, in ng/g.

Would you mind telling me what Cmax value was observed for C[C@@H](c1ccc(Nc2cc(Nc3ncccc3S(C)(=O)=O)ncn2)nc1)N1CC2(COC2)C1 ?
464

---

Test: Plasma and tissue distribution in SD rats
Assay type: in vivo
Conditions: female; F SD rat, Ovaries
Method: The following Example describes the methods and data used to evaluate the tissue distribution of TYK2 inhibitors following the administration of either compound 1 or compound 2. Thirty (30, 15/sex) SD rats supplied by Beijing Vital River Laboratory Animal Technology Co., Ltd. were used in this study. […] The room (s) was controlled and monitored for relative humidity (targeted mean range 40% to 70%) and temperature (targeted mean range 20° C. to 26° C.) with 15 or above air changes/hour. […]
quantity-measured: Tmax (min)
Give bare numbers, in min.

Would you mind telling me what Tmax value was observed for C[C@@H](c1ccc(Nc2cc(Nc3ncc(F)cc3S(C)(=O)=O)ncn2)nc1)N1CC2(COC2)C1 ?
30

---

assay: Plasma and tissue distribution in SD rats; type: in vivo; settings: male, Sprague-Dawley; M SD rat, Bladder; read-out: AUCINF_obs
quantity-measured: AUC0-inf (ng·h/mL)
One number for each entry, in ng·h/mL.

Would you mind telling me what AUC0-inf value was observed for C[C@@H](c1ccc(Nc2cc(Nc3ncc(F)cc3S(C)(=O)=O)ncn2)nc1)N1CC2(COC2)C1 ?
36300

---

experiment: Plasma and tissue distribution in SD rats; assay type: in vivo; conditions: male, Sprague-Dawley; M SD rat, Adipose
quantity-measured: Cmax
Could you write the number and then its unit?

Would you mind telling me what Cmax value was observed for C[C@@H](c1ccc(Nc2cc(Nc3ncc(F)cc3S(C)(=O)=O)ncn2)nc1)N1CC2(COC2)C1 [Compound 2] ?
3900 ng/mL

---

assay: Plasma and tissue distribution in SD rats; assay type: in vivo; conditions: male, Sprague-Dawley (SD); M SD rat, Liver
quantity-measured: Cmax

Would you mind telling me what Cmax value was observed for C[C@@H](c1ccc(Nc2cc(Nc3ncc(F)cc3S(C)(=O)=O)ncn2)nc1)N1CC2(COC2)C1 ?
6340 ng/mL

---

assay: Plasma and tissue distribution in SD rats; format: in vivo; details: female, Sprague-Dawley (SD); F SD rat, Brain
quantity-measured: Cmax
Could you write the number and then its unit?

Would you mind telling me what Cmax value was observed for C[C@@H](c1ccc(Nc2cc(Nc3ncc(F)cc3S(C)(=O)=O)ncn2)nc1)N1CC2(COC2)C1 ?
104 ng/mL

---

test: Plasma and tissue distribution in SD rats; assay type: in vivo; conditions: female SD rat, PO 10 mg/kg, Lung
quantity-measured: Cmax (ng/g)
Numbers only, in ng/g.

Would you mind telling me what Cmax value was observed for C[C@@H](c1ccc(Nc2cc(Nc3ncccc3S(C)(=O)=O)ncn2)nc1)N1CC2(COC2)C1 ?
2180

---

Test: Plasma and tissue distribution in SD rats
Type: in vivo
Details: male SD rat, PO 10 mg/kg, Spleen
Description: The following Example describes the methods and data used to evaluate the tissue distribution of TYK2 inhibitors following the administration of either compound 1 or compound 2. Thirty (30, 15/sex) SD rats supplied by Beijing Vital River Laboratory Animal Technology Co., Ltd. were used in this study. […] The room (s) was controlled and monitored for relative humidity (targeted mean range 40% to 70%) and temperature (targeted mean range 20° C. to 26° C.) with 15 or above air changes/hour. […]
quantity-measured: Tmax (min)
Answers are plain numbers, in min.

Would you mind telling me what Tmax value was observed for C[C@@H](c1ccc(Nc2cc(Nc3ncccc3S(C)(=O)=O)ncn2)nc1)N1CC2(COC2)C1 ?
30

---

Experiment: Plasma and tissue distribution in SD rats
Type: in vivo
Settings: female, SD, rat, kidney (left and right), po, 10 mg/kg, female SD rat, PO 10 mg/kg, Kidney (left and right); Tissue AUC0-last/Plasma AUC0-last; read-out: AUC Ratio
Description: The following Example describes the methods and data used to evaluate the tissue distribution of TYK2 inhibitors following the administration of either compound 1 or compound 2. Thirty (30, 15/sex) SD rats supplied by Beijing Vital River Laboratory Animal Technology Co., Ltd. were used in this study. […] The room (s) was controlled and monitored for relative humidity (targeted mean range 40% to 70%) and temperature (targeted mean range 20° C. to 26° C.) with 15 or above air changes/hour. […]
quantity-measured: Kp

Would you mind telling me what Kp value was observed for C[C@@H](c1ccc(Nc2cc(Nc3ncccc3S(C)(=O)=O)ncn2)nc1)N1CC2(COC2)C1 [Compound 1] ?
30.6

---

test: Plasma and tissue distribution in SD rats; assay type: in vivo; conditions: Sprague-Dawley, rat, liver, oral, SD rat, Liver; read-out: Tissue/Plasma Ratio (AUCinf)
quantity-measured: Kp
One number for each entry.

Hi team, please reply with Kp for each item in this list.
1. C[C@@H](c1ccc(Nc2cc(Nc3ncccc3S(C)(=O)=O)ncn2)nc1)N1CC2(COC2)C1
2. C[C@@H](c1ccc(Nc2cc(Nc3ncc(F)cc3S(C)(=O)=O)ncn2)nc1)N1CC2(COC2)C1

1: 7.6; 2: 8.7

---

experiment: Plasma and tissue distribution in SD rats; format: in vivo; settings: female, SD, rat, skin, po, 10 mg/kg, female SD rat, PO 10 mg/kg, Skin; Tissue AUC0-last/Plasma AUC0-last; read-out: AUC Ratio
quantity-measured: Kp
Numbers only.

Would you mind telling me what Kp value was observed for C[C@@H](c1ccc(Nc2cc(Nc3ncccc3S(C)(=O)=O)ncn2)nc1)N1CC2(COC2)C1 ?
1.11

---

experiment: Plasma and tissue distribution in SD rats; format: in vivo; details: female SD rat, PO 10 mg/kg, Liver
quantity-measured: Cmax (ng/g)
Answers are plain numbers, in ng/g.

Would you mind telling me what Cmax value was observed for C[C@@H](c1ccc(Nc2cc(Nc3ncccc3S(C)(=O)=O)ncn2)nc1)N1CC2(COC2)C1 ?
6310

---

Test: Plasma and tissue distribution in SD rats
Format: in vivo
Settings: Sprague-Dawley; male SD rat, PO 10 mg/kg, Heart
Procedure: The following Example describes the methods and data used to evaluate the tissue distribution of TYK2 inhibitors following the administration of either compound 1 or compound 2. Thirty (30, 15/sex) SD rats supplied by Beijing Vital River Laboratory Animal Technology Co., Ltd. were used in this study. […] The room (s) was controlled and monitored for relative humidity (targeted mean range 40% to 70%) and temperature (targeted mean range 20° C. to 26° C.) with 15 or above air changes/hour. […]
quantity-measured: Tmax (min)
One number for each entry, in min.

Would you mind telling me what Tmax value was observed for C[C@@H](c1ccc(Nc2cc(Nc3ncccc3S(C)(=O)=O)ncn2)nc1)N1CC2(COC2)C1 ?
30

---

assay: Plasma and tissue distribution in SD rats; assay type: in vivo; details: Sprague-Dawley; male SD rat, PO 10 mg/kg, Heart
quantity-measured: Cmax (ng/g)
Answers are plain numbers, in ng/g.

Would you mind telling me what Cmax value was observed for C[C@@H](c1ccc(Nc2cc(Nc3ncccc3S(C)(=O)=O)ncn2)nc1)N1CC2(COC2)C1 ?
1260

---

assay: Plasma and tissue distribution in SD rats; type: in vivo; details: male, SD, rat, small intestine / plasma, po, 10 mg/kg, male SD rat, PO 10 mg/kg, Small intestine; Tissue AUC0-last/Plasma AUC0-last; read-out: AUC Ratio
quantity-measured: Kp
Answers are plain numbers.

Would you mind telling me what Kp value was observed for C[C@@H](c1ccc(Nc2cc(Nc3ncccc3S(C)(=O)=O)ncn2)nc1)N1CC2(COC2)C1 ?
27

---

experiment: Plasma and tissue distribution in SD rats; type: in vivo; details: male SD rat, PO 10 mg/kg, Small intestine
quantity-measured: half-life (h)
Give bare numbers, in h.

Would you mind telling me what half-life value was observed for C[C@@H](c1ccc(Nc2cc(Nc3ncccc3S(C)(=O)=O)ncn2)nc1)N1CC2(COC2)C1 ?
3.41

---

experiment: Plasma and tissue distribution in SD rats; type: in vivo; conditions: Sprague-Dawley; plasma, male SD rat, PO 10 mg/kg
quantity-measured: Cmax (ng/mL)
Numbers only, in ng/mL.

Would you mind telling me what Cmax value was observed for C[C@@H](c1ccc(Nc2cc(Nc3ncccc3S(C)(=O)=O)ncn2)nc1)N1CC2(COC2)C1 ?
1370

---

experiment: Plasma and tissue distribution in SD rats; format: in vivo; settings: female SD rat, PO 10 mg/kg, Bladder
quantity-measured: half-life
Could you write the number and then its unit?

Would you mind telling me what half-life value was observed for C[C@@H](c1ccc(Nc2cc(Nc3ncccc3S(C)(=O)=O)ncn2)nc1)N1CC2(COC2)C1 [Compound 1] ?
3.61 h

The measurements presented in this section are drawn from patent US20260048051A1.
